Biological target: Glutamate receptor ionotropic, AMPA (Rattus norvegicus) (UniProt P19491+P19492+P19493+P19490)
Test: Concentration of drug giving a 2-fold increase of the magnitude of the current induced by Ionotropic glutamate receptor AMPA (30 uM) and measured in Xenopus Oocytes expressing Rat Cortex AMPA Receptors
Format: functional, cell-based
Label key: met means EC2x under 200 µM; not met means EC2x of 200 µM or more.

Qu. Check if EC2x falls below 200 µM for CC1NS(=O)(=O)c2cnccc2N1C (centres undefined) .
Ans. met

Qu. Check if EC2x falls below 200 µM for CCN1CN(C)S(=O)(=O)c2ncccc21 .
Ans. met

Qu. Check if EC2x falls below 200 µM for O=S1(=O)NCNc2ccncc21 .
Ans. not met

Qu. Check if EC2x falls below 200 µM for CC1Nc2ccncc2S(=O)(=O)N1 (centres undefined) .
Ans. not met

Qu. Check if EC2x falls below 200 µM for CC1Nc2ccncc2S(=O)(=O)N1C (centres undefined) .
Ans. not met

Qu. Check if EC2x falls below 200 µM for CC(C)C(C)NC1=NS(=O)(=O)c2cnccc2N1 (centres undefined) .
Ans. not met

Qu. Check if EC2x falls below 200 µM for CCN1CN(CC)S(=O)(=O)c2ncccc21 .
Ans. met

Qu. Check if EC2x falls below 200 µM for CC1=NS(=O)(=O)c2cccnc2N1C .
Ans. not met

Qu. Check if EC2x falls below 200 µM for CC(C)N1CNS(=O)(=O)c2ncccc21 .
Ans. met

Qu. Check if EC2x falls below 200 µM for CCC1=NS(=O)(=O)c2cnccc2N1 .
Ans. not met

Qu. Check if EC2x falls below 200 µM for O=S1(=O)N=CNc2ccncc21 .
Ans. not met

Qu. Check if EC2x falls below 200 µM for CCCCN1CNS(=O)(=O)c2cnccc21 .
Ans. not met

Qu. Check if EC2x falls below 200 µM for CN1CNc2cccnc2S1(=O)=O .
Ans. not met

Qu. Check if EC2x falls below 200 µM for O=S1(=O)NC(c2ccccc2)Nc2ccncc21 (centres undefined) .
Ans. not met

Qu. Check if EC2x falls below 200 µM for CCCN1CNS(=O)(=O)c2cnccc21 .
Ans. not met

Qu. Check if EC2x falls below 200 µM for CN1CNS(=O)(=O)c2cnccc21 .
Ans. met

Qu. Check if EC2x falls below 200 µM for O=S1(=O)NCN(C2CCCCC2)c2ccncc21 .
Ans. not met

Qu. Check if EC2x falls below 200 µM for CC1=NS(=O)(=O)c2ncccc2N1 .
Ans. not met

Qu. Check if EC2x falls below 200 µM for CCN1CNS(=O)(=O)c2cnccc21 .
Ans. met

Qu. Check if EC2x falls below 200 µM for CC(C)C1Nc2ccncc2S(=O)(=O)N1 (centres undefined) .
Ans. not met

Qu. Check if EC2x falls below 200 µM for CC1=NS(=O)(=O)c2cnccc2N1 .
Ans. not met

Qu. Check if EC2x falls below 200 µM for CC1=NS(=O)(=O)c2cccnc2N1 .
Ans. not met

Qu. Check if EC2x falls below 200 µM for NS(=O)(=O)c1cc2c(cc1Cl)NC(C1CC3C=CC1C3)NS2(=O)=O (centres undefined) [CYCLOTHIAZIDE] .
Ans. met

Qu. Check if EC2x falls below 200 µM for CC(C)N1CNc2ccncc2S1(=O)=O .
Ans. not met

Qu. Check if EC2x falls below 200 µM for CC1=Nc2ccc(Cl)cc2S(=O)(=O)N1 [DIAZOXIDE] .
Ans. not met

Qu. Check if EC2x falls below 200 µM for CCC1NS(=O)(=O)c2cnccc2N1C (centres undefined) .
Ans. not met

Qu. Check if EC2x falls below 200 µM for CC1=NS(=O)(=O)c2cnccc2N1C .
Ans. not met

Qu. Check if EC2x falls below 200 µM for O=S1(=O)NCNc2ncccc21 .
Ans. not met

Qu. Check if EC2x falls below 200 µM for CC1=NS(=O)(=O)c2cnccc2N1C(C)C .
Ans. not met
